Values from ChEMBL document CHEMBL1201862

system: M14; assay: NCI tumour cell line growth inhibition, 48 h
Active and inactive are the calls of the source. No stated cut-off is given here; in the data, active = GI50 up to about 1.1 µM and inactive = higher.
Classes used: TRUE for active, FALSE for inactive

>>> discretelabel("CC#CC1C(OC(=O)c2ccccc2)CCCC1(CI)N=[N+]=[N-] (stereo not given)")
"FALSE"
>>> discretelabel("CC(=O)c1c(C)cc2cccc(OC3OC(CO)C(O)C(O)C3O)c2c1O.CC1OC(O)C(O)C(O)C1O (stereo not given)")
"FALSE"
>>> discretelabel("O=C1OCN(c2ccccc2)C12CCN(Cc1ccccc1)CC2")
"FALSE"
>>> discretelabel("COc1ccc(C2=C(N)c3cc(OC)ccc3C2=O)cc1")
"FALSE"
>>> discretelabel("C[n+]1ccccc1/C1=c2\\cc/c([nH]2)=C(\\c2cccc[n+]2C)C2=N/C(=C(/c3cccc[n+]3C)C3C=CC(N3)/C(c3cccc[n+]3C)=C3/C=CC1=N3)C=C2")
"FALSE"
>>> discretelabel("O=[N+]([O-])c1cccc2nc3ccccc3c(NCCN(CCO)CCO)c12")
"TRUE"
>>> discretelabel("C/C(=C/CC[C@]1(CO)CC[C@]2(C)[C@H](CC[C@@H]3[C@@]4(C)CC[C@H](OC5OC(CO)C(O)C(O)C5OC5OC(CO)C(O)C(O)C5O)C(C)(C)[C@@H]4CC[C@]32C)[C@H]1O)CO (stereo not given in full)")
"FALSE"
>>> discretelabel("O=C1N2CCC[C@H]2CS1(=O)=O")
"FALSE"
>>> discretelabel("NC(=O)C(=CNC(=S)Nc1ccccc1)C(N)=O")
"FALSE"
>>> discretelabel("O=c1[nH]n(CCc2ccccc2CCl)c2ccc([N+](=O)[O-])cc12")
"FALSE"
>>> discretelabel("CC(=O)Nc1ccc(-c2nnc(SCC(=O)Nc3ccc(Cl)cc3Cl)o2)cc1")
"FALSE"
>>> discretelabel("Cc1ccc(C(=O)Nc2ccc(CP(=O)(O)O)cc2)cc1NC(=O)Nc1cc(C(=O)Nc2ccc(CP(=O)(O)O)cc2)ccc1C")
"FALSE"
>>> discretelabel("COc1ccc(/C=C2\\Cc3ccccc3C2=O)cc1OC")
"FALSE"
>>> discretelabel("C=CC[P@@]1(=O)O[C@H](c2ccccc2)C(C)N1C(C)C (stereo not given in full)")
"FALSE"
>>> discretelabel("C/C(=N\\O)c1ccc(Nc2c3ccccc3nc3occc23)cc1")
"TRUE"
>>> discretelabel("Cc1cc(S(=O)(=O)Nc2nc3ccccc3n2-c2ccccc2)c(S)cc1Cl")
"FALSE"
>>> discretelabel("OC12CC/C(=N/OCc3ccccc3)CC1c1ccccc12 (stereo not given)")
"FALSE"
>>> discretelabel("S=C(NN=C1NCCCCN1)Nc1ccccc1")
"FALSE"
>>> discretelabel("COc1ccc(/C(=N/NC(=O)NN)C(c2ccc(OC)cc2)C2(O)CNc3c(Cl)cc(Cl)cc32)cc1 (stereo not given)")
"FALSE"
>>> discretelabel("C#CCn1ncc2c(SC)ncnc21")
"FALSE"
